- Test system: SK-BR-3 cells
- assay.name: Measurement of cell growth inhibition (crystal violet staining)
- Format: cell-based
- assay.conditions: Homo sapiens, 72 hours culture with test substance
pIC50: −log10 of the molar value.
property.measured: pIC50

CC(C)c1nn(-c2ccc(C(N)=O)cc2Cl)c2cccc(-n3cnc(-c4cnn(C)c4)c3)c12; 6.57

(a) CC(C)c1nn(-c2ccc(C(N)=O)cc2NC2CCC2)c2cccc(-n3cnc(-c4cnn(C)c4)c3)c12
(b) Cn1cc(-c2cn(-c3cccc4c3c(C(F)(F)F)nn4-c3ccc(C(N)=O)c(NC(C)(C)C)c3)cn2)cn1
(c) Cc1cc(C(N)=O)ccc1-n1nc(C(F)(F)F)c2c(-n3cnc(-c4cccnc4)c3)cccc21
(d) NC(=O)c1ccc(-n2nc(C(F)(F)F)c3c(-n4cnc(-c5cccnc5)c4)cccc32)c(N)c1
(e) CC(C)c1nn(-c2ccc(C(N)=O)nc2)c2cccc(-n3cnc(-c4cnn(C)c4)c3)c12
query: Arrange items by their pIC50 values in increasing order. Give the order by naming the labels one after another as requested.
result: e, c, d, a, b
(e: 5.92, c: 6.52, d: 6.77, a: 7.22, b: 8.00)

Ref: patent US9120780B2
